The origin of these recorded values is the Human Domainome abundance scans (Beltran et al. 2025).

B1: Far upstream element-binding protein 3, residues 75 to 150; numbered along this chain, Q96I24 (parent)
chain: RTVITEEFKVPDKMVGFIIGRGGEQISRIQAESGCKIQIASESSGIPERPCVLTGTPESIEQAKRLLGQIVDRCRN

# Variants of: B1
# Procedure summary: abundance fitness (aPCA) (normalised: wild type 0, dead -1); higher = more abundant; growth selection in yeast, the domain comes from the species named
# Test settings: Homo sapiens
Heads up, the class ranges for abundance fitness are low range: < -0.2; mid range: ≥ -0.2 and < -0.03; high range: ≥ -0.03

Which category does the recorded abundance fitness put `Q30F` in?
low range

Which category does the recorded abundance fitness put `S44Q` in?
high range

Which category does the recorded abundance fitness put `K64A` in?
low range

Which category does the recorded abundance fitness put `F17A` in?
high range

Which category does the recorded abundance fitness put `I46F` in?
high range

Which category does the recorded abundance fitness put `S44F` in?
mid range

Which category does the recorded abundance fitness put `R49P` in?
mid range

Which category does the recorded abundance fitness put `G55W` in?
low range
